Entry source: ChEMBL document CHEMBL4130635

# Test Protocol: Cmax in C57BL/6J mouse liver at 1 mg/kg, po by LC-MS analysis
# Type: ADME, organism-based
# Set-up: dose 1 mg/kg, route oral

Record Smiles: CCC[C@@H](CCO)Nc1nc(N)nc2c(F)cccc12
Cmax: 188 ng/g

====

# Assay Target: UniProtKB Q9NR97
# Test Protocol: Agonist activity at human TLR8 expressed in HEK293 cells assessed as induction of receptor activation incubated for 6 hrs by NF-kappaB-luciferase reporter gene assay
# Type: cell-based
Observed Property: MEC (µM)

Record Smiles: CCCC[C@@H](CCO)Nc1nc(N)nc2c(F)cccc12
Assay Target: UniProtKB Q9NR97
Endpoint Value: 0.16
//
Record Smiles: CC[C@H](C)[C@@H](CO)Nc1nc(N)nc2ccccc12
Assay Target: UniProtKB Q9NR97
Endpoint Value: 0.08
//
Record Smiles: CCCC[C@@H](CO)Nc1nc(N)nc2ccccc12
Assay Target: UniProtKB Q9NR97
Endpoint Value: 0.02

====

# Test Protocol: Intrinsic clearance in dog liver microsomes assessed per mg protein at 1 uM up to 60 mins
# Format: ADME, Canis lupus familiaris, microsome
# Recorded Conditions: read-out: CLH

Record Smiles: CCC[C@@H](CCO)Nc1nc(N)nc2c(F)cccc12
microsomal CLint at 1 µM / µL/min/mg: 21

====

# Assay Target: Toll-like receptor 8 (Homo sapiens) (UniProt Q9NR97)
# Sequence (whole entry): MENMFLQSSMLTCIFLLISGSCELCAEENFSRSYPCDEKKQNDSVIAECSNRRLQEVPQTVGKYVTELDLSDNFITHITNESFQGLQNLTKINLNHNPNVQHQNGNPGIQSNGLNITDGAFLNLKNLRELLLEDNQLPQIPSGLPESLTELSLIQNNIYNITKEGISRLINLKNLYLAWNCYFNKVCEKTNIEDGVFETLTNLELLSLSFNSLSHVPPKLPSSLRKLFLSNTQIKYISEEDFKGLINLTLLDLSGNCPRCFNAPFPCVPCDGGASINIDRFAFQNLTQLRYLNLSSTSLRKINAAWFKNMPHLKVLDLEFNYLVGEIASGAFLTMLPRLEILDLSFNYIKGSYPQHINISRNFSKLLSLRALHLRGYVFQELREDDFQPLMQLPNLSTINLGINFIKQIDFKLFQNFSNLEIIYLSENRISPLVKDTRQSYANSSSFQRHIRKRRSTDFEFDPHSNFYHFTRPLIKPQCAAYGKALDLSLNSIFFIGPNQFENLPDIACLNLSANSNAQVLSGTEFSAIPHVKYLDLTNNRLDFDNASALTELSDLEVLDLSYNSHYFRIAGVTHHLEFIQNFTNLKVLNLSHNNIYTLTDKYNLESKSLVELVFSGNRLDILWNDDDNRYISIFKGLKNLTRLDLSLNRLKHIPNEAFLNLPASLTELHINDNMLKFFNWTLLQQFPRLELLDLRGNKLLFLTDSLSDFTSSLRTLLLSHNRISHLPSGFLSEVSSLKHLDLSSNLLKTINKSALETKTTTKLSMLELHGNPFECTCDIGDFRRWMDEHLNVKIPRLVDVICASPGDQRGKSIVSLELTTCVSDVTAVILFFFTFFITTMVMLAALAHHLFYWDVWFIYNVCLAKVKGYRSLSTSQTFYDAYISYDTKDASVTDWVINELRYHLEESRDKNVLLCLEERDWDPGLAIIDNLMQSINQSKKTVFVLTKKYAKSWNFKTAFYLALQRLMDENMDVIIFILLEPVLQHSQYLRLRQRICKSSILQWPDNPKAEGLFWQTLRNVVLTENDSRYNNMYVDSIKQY
# Test Protocol: Agonist activity at human TLR8 expressed in HEK293 cells assessed as induction of receptor activation incubated for 6 hrs by NF-kappaB-luciferase reporter gene assay
# Type: cell-based

Record Smiles: CCC[C@@H](CCO)Nc1nc(N)nc2cccc(F)c12
Assay Target: Toll-like receptor 8 (Homo sapiens) (UniProt Q9NR97)
MEC / µM: 0.02

Record Smiles: CCC[C@@H](CCO)Nc1nc(N)nc2ccc(OC)cc12
Assay Target: Toll-like receptor 8 (Homo sapiens) (UniProt Q9NR97)
MEC / µM: 2.97

Record Smiles: CCCCNc1nc(N)nc2ccccc12
Assay Target: Toll-like receptor 8 (Homo sapiens) (UniProt Q9NR97)
MEC / µM: 0.06

Record Smiles: CC(C)C[C@@H](CCO)Nc1nc(N)nc2ccccc12
Assay Target: Toll-like receptor 8 (Homo sapiens) (UniProt Q9NR97)
MEC / µM: 0.69

Record Smiles: CCC[C@@H](CO)Nc1nc(N)nc2ccccc12
Assay Target: Toll-like receptor 8 (Homo sapiens) (UniProt Q9NR97)
MEC / µM: 0.01

Record Smiles: CCCC[C@@H](CCO)Nc1nc(N)nc2ccccc12
Assay Target: Toll-like receptor 8 (Homo sapiens) (UniProt Q9NR97)
MEC / µM: 0.08
